experiment: chemical genetic growth profiling, strain panel (AID 1159580);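 also: tested at 20 µM; growth read once vehicle control cultures reached saturation at 30 °C; 1 = growth at the plate median or of vehicle wells; lower values mean less growth of the strain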
assay-conditions: S. cerevisiae deletion strains, growth OD, locus YCL029C, strain bik1, stronger effect = lower value
The campaign covered roughly 5,500 compounds. About 2,000 (36%) were called active. Another 18% or so got no clear call; they are omitted. The list shows a part of the results.
quantity: normalized growth

>  <compound>
CC1(C)OC(=O)NC1=O

>  <experimental-value>
0.969

$$$$
>  <compound>
CC(=O)OCC(=O)[C@H]1CCC2C3CCC4=CC(=O)CC[C@]4(C)C3CC[C@@]21C (stereo partly specified)

>  <experimental-value>
0.957

$$$$
>  <compound>
O=C(O)c1c2ccccc2cc2ccccc12

>  <experimental-value>
0.992

$$$$
>  <compound>
O=C1C=CC(=C(c2ccc(O)cc2)c2ccc(O)cc2)C=C1

>  <experimental-value>
0.99

$$$$
>  <compound>
CC(N)C(=O)OC(C)(C)Cc1ccc(Cl)cc1 (stereo unspecified)

>  <experimental-value>
0.987

$$$$
>  <compound>
CCN(CC)CCNC(=O)c1cc(Br)c(N)cc1OC

>  <experimental-value>
0.989

$$$$
>  <compound>
C=C1C([C@]2(C)C(CC(=O)OC)[C@@](C)(COC(C)=O)OC(=O)C[C@@H]2OC(C)=O)[C@@H](OC=O)[C@H](OC(=O)C(OC(C)=O)C(C)CC)[C@@]2(C)[C@H](c3ccoc3)CC(=O)C12O (stereo partly specified)

>  <experimental-value>
1.03

$$$$
>  <compound>
CCCCCCCCCCCCCCCC[N+](C)(C)C

>  <experimental-value>
0.0609

$$$$
>  <compound>
O=C(O)c1cc2ccccc2c(Cc2c(O)c(C(=O)O)cc3ccccc23)c1O

>  <experimental-value>
1.01

$$$$
>  <compound>
CC(C)OC(=O)C(C)(C)Oc1ccc(C(=O)c2ccc(Cl)cc2)cc1

>  <experimental-value>
1.01

$$$$
>  <compound>
C=Cc1c2[nH]c(c1C)C=c1[nH]c(c(C)c1C=C)=CC1N=C(C=c3[nH]c(c(C)c3CCC(=O)O)=C2)C(CCC(=O)O)=C1C (stereo unspecified)

>  <experimental-value>
0.979

$$$$
>  <compound>
CCOC(=O)C(C)(C)Oc1ccc(Cl)cc1

>  <experimental-value>
1

$$$$
>  <compound>
CCOC(=O)C(=O)C1(C(=O)OCC)Oc2cc(OC)cc(OC)c2C(=O)C1c1ccccc1 (stereo unspecified)

>  <experimental-value>
0.989

$$$$
>  <compound>
COc1ccc2c(c1OC)C(=O)O[C@@H]2[C@H]1c2cc3c(cc2CCN1C)OCO3

>  <experimental-value>
1.02

$$$$
>  <compound>
C=C1C2CC[C@H]3[C@]4(C)C[C@H](OC5OC(CO)C(OS(=O)(=O)O)C(OS(=O)(=O)O)C5OC(=O)CC(C)C)C[C@@H](C(=O)O)[C@H]4CC[C@]3(C2)[C@H]1O (stereo partly specified)

>  <experimental-value>
0.983

$$$$
>  <compound>
COc1ccc2c3c1O[C@H]1C[C@@H](O)C=C[C@@]31CCN(C)C2

>  <experimental-value>
1.02

$$$$
>  <compound>
C[C@H]1OC(n2cc(F)c(=O)[nH]c2=O)C(O)[C@@H]1O (stereo partly specified)

>  <experimental-value>
0.973

$$$$
>  <compound>
CNCCc1ccccn1

>  <experimental-value>
1.04

$$$$
>  <compound>
c1cncc(C2CCCCN2)c1 (stereo unspecified)

>  <experimental-value>
0.982

$$$$
>  <compound>
CC(=O)OCC(=O)[C@@]1(O)CCC2C3CCC4=CC(=O)CC[C@]4(C)C3C(=O)C[C@@]21C (stereo partly specified)

>  <experimental-value>
1.03

$$$$
>  <compound>
COc1ccc2c(c1OC)C(=O)O[C@H]2[C@H]1c2cc3c(cc2CCN1C)OCO3

>  <experimental-value>
1.02

$$$$
